experimental target: Growth hormone secretagogue receptor type 1 (Homo sapiens)
procedure text: Tested for growth hormone secretagogue activity in A93 cell line using a calcium flux assay at 10 uM (Relative to compound T1); NA means not active
Format: functional, cell-based
Calls of active or inactive are those of the source. The calls are words filed in the database; no cut-off is given here.
readout type: Activity

Task: Endpoint output: Activity of CCN(CC)CCCN(C(=O)c1ccc(-c2ccccc2)[nH]1)C(C(=O)NC1CCCCC1)c1ccco1 (centres undefined) . Value?
Result: inactive

Task: Endpoint output: Activity of O=C(NC1CCCC1)C(c1ccncc1)N(C(=O)c1ccc(-c2ccccc2)[nH]1)c1ccccc1 (centres undefined) . Value?
Result: inactive

Task: Endpoint output: Activity of O=C(NC1CCCCC1)C(c1ccc(F)cc1)N(CCN1CCOCC1)C(=O)c1ccc(-c2ccccc2)[nH]1 (centres undefined) . Value?
Result: inactive

Task: Endpoint output: Activity of CCN(CC)CCCN(C(=O)Cn1nnc(-c2ccc(OC)c(OC)c2)n1)C(C(=O)NC1CCCCC1)c1ccc(F)cc1 (centres undefined) . Value?
Result: inactive

---

experimental target: Growth hormone secretagogue receptor type 1 (Homo sapiens, UniProt Q92847)
Sequence (Q92847 whole entry): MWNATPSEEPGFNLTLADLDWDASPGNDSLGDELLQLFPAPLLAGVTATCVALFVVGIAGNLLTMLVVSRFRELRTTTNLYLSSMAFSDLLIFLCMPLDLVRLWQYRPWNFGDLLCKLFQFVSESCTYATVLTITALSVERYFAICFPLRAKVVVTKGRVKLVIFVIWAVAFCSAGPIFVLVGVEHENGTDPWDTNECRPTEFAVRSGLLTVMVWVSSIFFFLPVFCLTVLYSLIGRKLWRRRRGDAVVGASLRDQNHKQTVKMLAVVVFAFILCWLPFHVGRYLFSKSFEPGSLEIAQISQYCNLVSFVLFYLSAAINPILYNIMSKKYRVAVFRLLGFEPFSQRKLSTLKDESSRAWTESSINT
procedure text: Binding affinity for human growth hormone secretagogue receptor was determined using [125I]ghrelin
# key: entry, value: Ki
Value expressed in nM; do not type the unit.

Task: Endpoint output: Ki of CCN(CC)CCCN(C(=O)c1ccc(-c2ccccc2)[nH]1)C(C(=O)NC1CCCCC1)c1ccc(O)cc1 (centres undefined) . Value?
Result: 1320

More entries:
Task: Endpoint output: Ki of CCN(CC)CCCN(C(=O)c1ccc(-c2ccccc2)[nH]1)C(Cc1ccc(C)o1)C(=O)NC1CCCCC1 (centres undefined) . Value?
Result: 1170

Task: Endpoint output: Ki of CCCCC(C(=O)NC1CCCCC1)N(CCCN(CC)CC)C(=O)c1ccc(-c2ccccc2)[nH]1 (centres undefined) . Value?
Result: 280

Task: Endpoint output: Ki of CCN(CC)CCCN(C(=O)c1ccc(-c2ccccc2)[nH]1)C(C(=O)NC1CCCCC1)c1ccncc1 (centres undefined) . Value?
Result: 910
